TARGET_OR_TEST_SYSTEM: Nonstructural protein 1 (Influenza A virus, UniProt Q194T2)
Sequence (Q194T2 whole entry): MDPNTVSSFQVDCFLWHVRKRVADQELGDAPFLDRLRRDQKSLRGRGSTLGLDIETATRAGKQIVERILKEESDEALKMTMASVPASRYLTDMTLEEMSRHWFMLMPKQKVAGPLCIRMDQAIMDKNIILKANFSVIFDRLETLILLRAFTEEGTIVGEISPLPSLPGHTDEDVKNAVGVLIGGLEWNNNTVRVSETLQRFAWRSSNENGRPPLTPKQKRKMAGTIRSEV
Type: functional, Influenza A virus (A/California/07/2009(H1N1))
Active and inactive are the calls of the source.
READOUT_TYPE: IC50

COc1ccc2c(c1)c(=Cc1ccc(N(C)C)cc1)c1cc(-c3ccccc3)[n+](C)n12    4.56 µM (active)

Look at each molecule and report its IC50.
1. O=C(c1ccc(-c2cc(O)c3ncccc3c2)cc1)N1CCNCC1
2. CN(C)c1cc2c(c(N(C)C)c1)C(=O)c1ccccc1C2=O

Solution:
["9.74 µM (active)", "14.1 µM (active)"]

Look at each molecule and report its IC50.
1. OCCN(Cc1cccnc1)Cc1ccccn1
2. CCCCN1C(=O)NC2NC(=O)NC21 (stereo not given)
3. CC(=NNC(=S)Nc1cccc(Cl)c1)c1ccccn1
4. CC1=NN(Cc2ccccc2)C(=O)/C1=C\c1ccc(N(C)C)cc1
5. CC(=O)NC(c1ccco1)c1ccc2cccnc2c1O (stereo not given)
6. CCN(c1ccc(NC(=O)COC(=O)c2ccc3ccccc3n2)cc1)C(C)C
7. COc1ccc(C2C(C#N)=C(N)Nc3onc(C(C)(C)C)c32)c(OC)c1 (stereo not given)

Solution:
["4.64 µM (active)", "> 100 µM (active)", "15.4 µM (active)", "32.3 µM (active)", "12.5 µM (active)", "93.5 µM (active)", "> 100 µM (active)"]
